Cited source: patent US9238631B2

Tested on: NCI-H460 tumor
method notes: In vivo biodistribution in NCI-H460 tumor bearing mice
measurement context: 1 h p.i.
parameter: Liver (% ID/g at 1 h p.i.)
A complete answer gives the number followed by the unit.

Record summary for N[C@H](CCC(Cc1ccc(OCC[18F])cc1)C(=O)O)C(=O)O (stereo partly shown) [[^18F]-16] : reported Liver (% ID/g at 1 h p.i.) = 3.3 ± 0.1 % ID/g

Record summary for N[C@@H](CCC(Cc1ccc(NCC[18F])cc1)C(=O)O)C(=O)O (stereo partly shown) [[^18F]-52] : reported Liver (% ID/g at 1 h p.i.) = 2.6 ± 0.4 % ID/g

Record summary for N[C@@H](CC(Cc1ccc(OCC[18F])c(O)c1)C(=O)O)C(=O)O (stereo partly shown) [[^18F]-44] : reported Liver (% ID/g at 1 h p.i.) = 0.95 ± 0.1 % ID/g

Record summary for N[C@@H](CC(Cc1ccc(NCCC[18F])cc1)C(=O)O)C(=O)O (stereo partly shown) [[^18F]-8] : reported Liver (% ID/g at 1 h p.i.) = 1.3 ± 0.3 % ID/g

Record summary for N[C@@H](C[C@H](CCCc1ccc(OCC[18F])cc1)C(=O)O)C(=O)O [[^18F]-25] : reported Liver (% ID/g at 1 h p.i.) = 0.2 ± 0.1 % ID/g

Record summary for N[C@@H](CCC(Cc1ccc(OC[18F])cc1)C(=O)O)C(=O)O (single isomer, unassigned) [[^18F]-41 C5-2] : reported Liver (% ID/g at 1 h p.i.) = 0.3 ± 0.1 % ID/g

Record summary for N[C@@H](CC(Cc1ccc(CCC[18F])cc1)C(=O)O)C(=O)O (stereo partly shown) [[^18F]-9] : reported Liver (% ID/g at 1 h p.i.) = 0.2 ± 0.1 % ID/g

Record summary for N[C@@H](CC(Cc1ccc(OCC[18F])nc1)C(=O)O)C(=O)O (stereo partly shown) [[^18F]-56] : reported Liver (% ID/g at 1 h p.i.) = 0.7 ± 0.2 % ID/g

Record summary for N[C@@H](CCC(Cc1ccc(OC[18F])cc1)C(=O)O)C(=O)O (stereo partly shown) [[^18F]-41] : reported Liver (% ID/g at 1 h p.i.) = 0.3 ± 0.1 % ID/g

Record summary for N[C@@H](CC(Cc1ccc(O[C@H]2C[C@@H]([18F])C2)cc1)C(=O)O)C(=O)O (stereo partly shown) [[^18F]-22] : reported Liver (% ID/g at 1 h p.i.) = 4.1 ± 0.8 % ID/g

* * *

Tested on: NCI-H460 tumor
method notes: In vivo biodistribution in NCI-H460 tumor bearing mice
measurement context: 1 h p.i.
Returns: string. Value is Satisfied if measured Urine (% ID at 1 h p.i.) is below 80 % ID, and Not satisfied if it is greater than or equal to it.

Task: Bench note: check whether N[C@@H](CC(Cc1ccc(CCC[18F])cc1)C(=O)O)C(=O)O (stereo partly drawn) [[^18F]-9] shows Urine (% ID at 1 h p.i.) below 80 % ID
Output: Not satisfied

Task: Bench note: check whether N[C@@H](CC(Cc1ccc(O[C@H]2C[C@@H]([18F])C2)cc1)C(=O)O)C(=O)O (stereo partly drawn) [[^18F]-22] shows Urine (% ID at 1 h p.i.) below 80 % ID
Output: Satisfied

Task: Bench note: check whether N[C@@H](CC(Cc1ccc(NCCC[18F])cc1)C(=O)O)C(=O)O (stereo partly drawn) [[^18F]-8] shows Urine (% ID at 1 h p.i.) below 80 % ID
Output: Not satisfied

Task: Bench note: check whether N[C@@H](CC(Cc1ccc(OCC[18F])nc1)C(=O)O)C(=O)O (stereo partly drawn) [[^18F]-56] shows Urine (% ID at 1 h p.i.) below 80 % ID
Output: Satisfied

Task: Bench note: check whether N[C@@H](CCC(Cc1ccc(OC[18F])cc1)C(=O)O)C(=O)O (single isomer, unassigned) [[^18F]-41 C5-2] shows Urine (% ID at 1 h p.i.) below 80 % ID
Output: Not satisfied

Task: Bench note: check whether N[C@@H](CCC(Cc1ccc(OC[18F])cc1)C(=O)O)C(=O)O (single isomer, unassigned) [[^18F]-41 C5-1] shows Urine (% ID at 1 h p.i.) below 80 % ID
Output: Not satisfied

Task: Bench note: check whether N[C@H](CCC(Cc1ccc(OCC[18F])cc1)C(=O)O)C(=O)O (stereo partly drawn) [[^18F]-16] shows Urine (% ID at 1 h p.i.) below 80 % ID
Output: Satisfied

Task: Bench note: check whether N[C@@H](CCC(Cc1ccc(OC[18F])cc1)C(=O)O)C(=O)O (stereo partly drawn) [[^18F]-41] shows Urine (% ID at 1 h p.i.) below 80 % ID
Output: Satisfied

Task: Bench note: check whether N[C@@H](C[C@H](CCCc1ccc(OCC[18F])cc1)C(=O)O)C(=O)O [[^18F]-25] shows Urine (% ID at 1 h p.i.) below 80 % ID
Output: Not satisfied

Task: Bench note: check whether N[C@@H](CCC(Cc1ccc(NCC[18F])cc1)C(=O)O)C(=O)O (stereo partly drawn) [[^18F]-52] shows Urine (% ID at 1 h p.i.) below 80 % ID
Output: Satisfied
